The origin of these recorded values is BindingDB's records for doi:10.1021/jm000285q.

# tested-system: UniProt:P06213
# Sequence (P06213 28-758 limits assumed): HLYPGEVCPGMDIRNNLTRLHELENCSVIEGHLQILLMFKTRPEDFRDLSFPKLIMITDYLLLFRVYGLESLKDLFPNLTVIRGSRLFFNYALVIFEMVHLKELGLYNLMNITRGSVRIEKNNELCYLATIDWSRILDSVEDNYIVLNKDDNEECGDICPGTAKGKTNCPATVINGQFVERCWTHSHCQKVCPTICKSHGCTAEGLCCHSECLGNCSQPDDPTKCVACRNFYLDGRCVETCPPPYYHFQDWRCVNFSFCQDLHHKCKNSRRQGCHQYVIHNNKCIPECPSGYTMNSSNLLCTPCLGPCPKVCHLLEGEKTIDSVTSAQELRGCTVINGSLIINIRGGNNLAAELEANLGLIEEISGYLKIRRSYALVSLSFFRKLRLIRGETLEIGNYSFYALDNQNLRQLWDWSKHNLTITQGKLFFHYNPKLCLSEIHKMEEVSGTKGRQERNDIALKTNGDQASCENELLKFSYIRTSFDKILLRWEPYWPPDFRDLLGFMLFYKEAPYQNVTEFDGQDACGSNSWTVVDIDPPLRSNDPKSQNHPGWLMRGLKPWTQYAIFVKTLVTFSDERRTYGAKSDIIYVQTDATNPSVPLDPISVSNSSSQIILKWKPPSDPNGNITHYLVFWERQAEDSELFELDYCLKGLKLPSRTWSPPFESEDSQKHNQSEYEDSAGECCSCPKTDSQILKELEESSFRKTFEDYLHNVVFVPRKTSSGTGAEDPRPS
# Sequence (P06213 763-1382 limits assumed): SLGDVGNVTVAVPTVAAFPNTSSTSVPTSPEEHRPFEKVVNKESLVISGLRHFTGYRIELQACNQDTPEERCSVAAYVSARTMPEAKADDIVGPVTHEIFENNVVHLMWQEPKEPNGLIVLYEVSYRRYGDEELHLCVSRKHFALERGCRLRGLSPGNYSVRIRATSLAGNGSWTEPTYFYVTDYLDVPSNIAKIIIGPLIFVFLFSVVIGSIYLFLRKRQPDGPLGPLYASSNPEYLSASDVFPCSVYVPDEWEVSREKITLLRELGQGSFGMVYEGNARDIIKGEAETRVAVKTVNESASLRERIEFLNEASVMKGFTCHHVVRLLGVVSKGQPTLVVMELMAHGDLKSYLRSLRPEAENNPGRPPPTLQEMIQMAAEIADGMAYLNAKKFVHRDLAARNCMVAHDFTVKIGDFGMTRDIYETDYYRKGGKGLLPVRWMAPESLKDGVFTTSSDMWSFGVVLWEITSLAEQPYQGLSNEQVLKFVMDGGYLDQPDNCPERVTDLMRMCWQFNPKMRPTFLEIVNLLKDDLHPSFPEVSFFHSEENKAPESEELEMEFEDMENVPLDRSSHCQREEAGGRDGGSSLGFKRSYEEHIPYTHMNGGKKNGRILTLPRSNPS
# method: Activation of human insulin receptor tyrosine kinase (IRTK)
reported-metric: EC50 (nM)

[
  {
    "compound": "O=C1C(=O)C(c2c[nH]c3ccccc23)C(=O)C(=O)C1c1ccccc1 (configuration not stated)",
    "EC50, nM": 300
  },
  {
    "compound": "Cn1cc(C2C(=O)C(=O)C(c3ccccc3)C(=O)C2=O)c2ccccc21 (configuration not stated)",
    "EC50, nM": 300
  }
]
